Listing: viability at 28.5 h, 0.037 µM of selected compounds
assay: in vitro; set-up: Viability of infected HeLa host cells, resazurin conversion, bulk resorufin fluorescence relative to DMSO; conditions: human, hela cells; bulk resorufin, mean of 3
The reply should be a number in %, with the unit left off.

INSERT INTO assay_data (compound, value) VALUES
  ('FC(F)(F)CCN1CCC2(CC1)NCCc1c2[nH]c2ccc(Cl)cc12 [c34e]', 88.5),
  ('CCC(c1ccc(F)cc1)N(C)C(=O)Cn1cc(C(=O)NC2CCCCC2)ccc1=O (stereo not drawn) [c44e]', 90.8),
  ('COc1cccc(CNC(C(=O)O)c2ccc3c(c2)OCO3)c1 (stereo not drawn) [c40e]', 99.4),
  ('N#Cc1c(Nc2cccc(C(F)(F)F)c2)sc(C(=O)c2ccc3c(c2)OCO3)c1N', 86),
  ('Cc1ccc2[nH]c3c(c2c1)CCOC31CCN(Cc2ccccc2-c2ccccc2)CC1 [c22e]', 94.6);

Ask: Consider the compound CNC(=S)N1CCN(c2nsc3ccccc23)CC1 and give its measured viability at 28.5 h, 0.037 µM.
Result: 97.3

Ask: Which viability at 28.5 h, 0.037 µM value belongs to Oc1c(CN2CCN(c3ccc(F)cc3)CC2)cc(Br)c2cccnc12 [c43e] ?
Result: 91.8

Ask: Give its viability at 28.5 h, 0.037 µM value. Item: O=C(CC1SC(Nc2ccc(O)cc2)=NC1=O)c1ccccc1 (stereo not drawn) [c13e]
Result: 87.6

Ask: Query: viability at 28.5 h, 0.037 µM; subject: O=C(NCCc1c[nH]c2ccc(Cl)cc12)c1c(F)ccc(Cl)c1F [c42e]
Result: 99.6

Ask: If you can, please state the reported viability at 28.5 h, 0.037 µM value of CCOc1ccsc1C(=O)NC1Cc2ccccc2C1 [c16e] .
Result: 87.1

Ask: Look at this compound and give its reported viability at 28.5 h, 0.037 µM. Cn1cc(C(c2ccc(OCC(=O)O)cc2)c2cn(C)c3ccccc23)c2ccccc21 [c48e]
Result: 88.5

Ask: Find the recorded viability at 28.5 h, 0.037 µM belonging to FC(F)(F)c1ccc(N2CCNCC2)nc1OCc1ccc2c(c1)OCCO2 [c46e] and report it.
Result: 90.4
